Origin of the recorded values: patent US9586963B2

targetUnderTest: Rev-Erb alpha (Homo sapiens, UniProt P20393)
Sequence (P20393 284-614 limits assumed): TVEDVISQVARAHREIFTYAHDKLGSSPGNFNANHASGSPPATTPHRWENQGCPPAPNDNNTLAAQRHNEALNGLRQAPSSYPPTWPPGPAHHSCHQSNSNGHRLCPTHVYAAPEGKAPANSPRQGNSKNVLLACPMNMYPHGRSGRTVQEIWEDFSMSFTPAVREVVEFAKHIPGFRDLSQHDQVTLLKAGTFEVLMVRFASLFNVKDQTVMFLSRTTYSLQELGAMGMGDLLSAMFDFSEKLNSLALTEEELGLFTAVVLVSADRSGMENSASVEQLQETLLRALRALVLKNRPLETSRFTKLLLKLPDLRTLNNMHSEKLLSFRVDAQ
protocolSummary: M2H (mammalian two-hybrid) cellular activation assay of Rev-Erb alpha
Format: cell-based
conditionLabel: M2H assay, HEK293 cells, Gal4-Rev-Erb alpha / VP16-NCoR, luciferase reporter
Counter-ions that a name gives are not always drawn.
Overview of recorded EC50 for various molecules
measurementName: EC50

>>> print(df.to_string())
                                    molecule           result
 0  FC(F)(F)c1nnc2ccc(Oc3ccccc3-c3ccccc3)nn12   100 to 1000 nM
 1  CC(C)c1ncncc1-c1ccc(C(F)(F)F)cc1Oc1ccc2nnc(Cl)n2n1  1000 to 6000 nM
 2   O=C(c1ccccc1)c1ccccc1Oc1ccc2nnc(Cl)n2n1  1000 to 6000 nM
 3  CC(C)(C)c1ccc(Oc2ccc3nnc(Cl)n3n2)c(-c2ccccc2)c1   100 to 1000 nM
 4  CCN(CC)c1ccc(Oc2ccc3nnc(Cl)n3n2)c(-c2ccccc2)c1         < 100 nM
 5  CCCNc1ccc(Oc2ccc3nnc(Cl)n3n2)c(-c2ccccc2)c1   100 to 1000 nM
 6  Cc1cc(Oc2cc(C(F)(F)F)ccc2-c2cncnc2)nn2c(Cl)nnc12  1000 to 6000 nM
 7  Cc1cccc(-c2cc(F)ccc2Oc2ccc3nnc(C(F)(F)F)n3n2)c1   100 to 1000 nM
 8  NCc1ccc(-c2ccccc2)c(Oc2ccc3nnc(Cl)n3n2)c1        > 6000 nM
 9  Fc1cc(Oc2ccc3nnc(C(F)(F)F)n3n2)c(-c2ccccc2)cc1F  1000 to 6000 nM
10  Nc1cccc(-c2cc(F)ccc2Oc2ccc3nnc(Cl)n3n2)c1  1000 to 6000 nM
11  Clc1nnc2ccc(Oc3cc(CNC4CCCC4)ccc3-c3ccccc3)nn12  1000 to 6000 nM
12   COc1cccc(-c2ccccc2Oc2ccc3nnc(Cl)n3n2)c1   100 to 1000 nM
13  FC(F)(F)c1ccc(-c2ccccn2)c(Oc2ccc3nnc(Cl)n3n2)c1 [Cpd.4-97, hydrochloride]  1000 to 6000 nM
14  Cc1ncccc1-c1ccc(C(F)(F)F)cc1Oc1cc(C)c2nnc(Cl)n2n1   100 to 1000 nM
15  Cc1cc2nnc(Cl)n2nc1Oc1ccc(Cl)cc1-c1cncnc1        > 6000 nM
16  Clc1nnc2ccc(Oc3cc(CN4CCCCC4)ccc3-c3ccccc3)nn12  1000 to 6000 nM
17  COc1ncc(-c2cc(Cl)ccc2Oc2cc(C)c3nnc(Cl)n3n2)cn1  1000 to 6000 nM
18  COC(=O)c1ccc(-c2ccccc2)c(Oc2ccc3nnc(Cl)n3n2)c1         < 100 nM
19  Clc1nnc2ccc(Oc3ccc(CNC4CC4)cc3-c3ccccc3)nn12  1000 to 6000 nM
20  Clc1cccc(-c2cccc(Oc3ccc4nnc(Cl)n4n3)c2)c1   100 to 1000 nM

* * *

measurementName: melting point (°C)

>>> print(df.to_string())
                                   molecule  unitinfo  readoutnumber
0  FC(F)(F)c1nnc2ccc(Cc3ccccc3-c3ccccc3)nn12 [Cpd.4-12]        °C          117.4
1  CC(C)(C)c1ccc(Oc2ccc3nnc(Cl)n3n2)c(-c2ccccc2)c1 [Cpd.4-19]        °C          199.1
2  Clc1nnc2ccc(Oc3ccccc3Cc3ccccc3)nn12 [Cpd.4-4]        °C          113.7
3  Cc1ccc(Oc2ccc3nnc(Cl)n3n2)c(-c2ccccc2)c1 [Cpd.4-27]        °C          144.5
4  FC(F)(F)c1nnc2ccc(Oc3cccc(Cc4ccccc4)c3)nn12 [Cpd.3-5]        °C            115
5  COc1cccc(-c2cc(F)c(F)cc2Oc2ccc3nnc(Cl)n3n2)c1 [Cpd.4-152]        °C            102
6  Fc1cccc(-c2ccccc2Oc2ccc3nnc(Cl)n3n2)c1 [Cpd.4-3]        °C           97.3
7  Oc1cccc(-c2ccc(C(F)(F)F)cc2Oc2ccc3nnc(C(F)(F)F)n3n2)c1 [Cpd.4-138]        °C            195
8  COc1ccc(-c2ccc(F)cc2)c(Oc2ccc3nnc(Cl)n3n2)c1 [Cpd.4-34]        °C          171.7
9  Nc1cccc(-c2cc(F)ccc2Oc2ccc3nnc(Cl)n3n2)c1 [Cpd.4-119]        °C          248.2

* * *

Listed compounds paired with reported melting point
Counter-ions that a name gives are not always drawn.
measurementName: melting point (°C)

                                   compound  measurementname  readoutnumber
0  COc1ccc(Oc2ccc3nnc(Cl)n3n2)c(-c2ccccc2)c1    melting point          164.6
1  O=C(c1ccccc1)c1cccc(Oc2ccc3nnc(C(F)(F)F)n3n2)c1    melting point           94.4
2      Fc1ccccc1-c1ccccc1Oc1ccc2nnc(Cl)n2n1    melting point           95.9
3     Clc1ccccc1-c1ccccc1Oc1ccc2nnc(Cl)n2n1    melting point           81.9
4  Fc1cc(Oc2ccc3nnc(Cl)n3n2)c(-c2ccccc2)cc1F    melting point          125.6
5  Fc1ccc(Oc2ccc3nnc(Cl)n3n2)c(-c2ccccc2)c1    melting point          148.4
6  OCc1ccc(Oc2ccc3nnc(Cl)n3n2)c(-c2ccccc2)c1 (as salt: sodium)    melting point             72
7  Clc1ccc(-c2cccc(Oc3ccc4nnc(Cl)n4n3)c2)cc1    melting point            128

* * *

Below, each entry is listed alongside its reported melting point.
measurementName: melting point (°C)

                                   molecule  measurementname  unitinfo  readoutnumber
0       Clc1nnc2ccc(Oc3ccccc3-c3ccccc3)nn12    melting point        °C            163
1  Fc1ccc(-c2ccc(F)cc2Oc2ccc3nnc(Cl)n3n2)cc1    melting point        °C          129.7

* * *

Measured melting point values are reported for all entries that follow.
measurementName: melting point (°C)

                                   molecule  unitinfo  readoutnumber
0  Fc1ccc(Oc2ccc3nnc(Cl)n3n2)c(-c2ccc(F)c(F)c2)c1        °C          147.8
1  Clc1ccc(Oc2ccc3nnc(Cl)n3n2)c(-c2ccccc2)c1        °C          166.2
2  FC(F)(F)c1nnc2ccc(Oc3cccc(-c4ccccc4)c3)nn12        °C          140.2

* * *

Documented melting point across a set of compounds
measurementName: melting point

>>> print(df.to_string())
                                   compound  measurementname         result
0  FC(F)(F)c1ccc(-c2ccccc2)c(Oc2nn3c(Cl)nnc3cc2-c2ccccc2)c1 [Cpd.5-5]    melting point  190 to 192 °C
1  COc1ncc(-c2cc(Cl)ccc2Oc2cc(C)c3nnc(Cl)n3n2)cn1 [Cpd.5-55]    melting point  170 to 172 °C
2  CCN(CC)c1ccc(Oc2ccc3nnc(Cl)n3n2)c(-c2ccccc2)c1 [Cpd.4-55]    melting point    55 to 58 °C
3  Fc1cccc(-c2cc(F)ccc2Oc2ccc3nnc(Cl)n3n2)c1 [Cpd.4-120]    melting point       106.2 °C
4  COc1ccc(-c2cccc(C(F)(F)F)c2)c(Oc2ccc3nnc(Cl)n3n2)c1 [Cpd.4-113]    melting point       111.6 °C
5  COc1ncccc1-c1ccc(C(F)(F)F)cc1Oc1nn2c(Cl)nnc2cc1C [Cpd.5-24]    melting point  176 to 178 °C
6  FC(F)(F)c1ccc(-c2cccnc2)c(Oc2ccc3nnc(C(F)(F)F)n3n2)c1 [Cpd.4-126]    melting point    69 to 70 °C
7  CC(C)CNc1ccc(Oc2ccc3nnc(Cl)n3n2)c(-c2ccccc2)c1 [Cpd.4-67]    melting point    62 to 67 °C
8  CCc1nnc2c(C)cc(Oc3cc(C(F)(F)F)ccc3-c3cncnc3)nn12 [Cpd.5-48]    melting point  182 to 184 °C

* * *

targetUnderTest: UniProtKB P20393
protocolSummary: M2H (mammalian two-hybrid) cellular activation assay of Rev-Erb alpha
Type: cell-based
conditionLabel: M2H assay, HEK293 cells, Gal4-Rev-Erb alpha / VP16-NCoR, luciferase reporter
pEC50: −log10 of the molar value. Counter-ions that a name gives are not always drawn.
Examples of molecules with documented pEC50 follow.
measurementName: pEC50

>>> df
                                   molecule        result
0  Cc1nc(-c2ccc(-c3cccnc3)c(Oc3ccc4nnc(Cl)n4n3)c2)no1        < 5.22
1  Cc1ncc(-c2ccc(C(F)(F)F)cc2Oc2cc(C)c3nnc(Cl)n3n2)cn1  5.22 to 6.00
2  COc1ncc(C)cc1-c1ccc(C(F)(F)F)cc1Oc1nn2c(Cl)nnc2cc1C  5.22 to 6.00
3  Cc1cc(Oc2cccc(C(F)(F)F)c2-c2cncnc2)nn2c(Cl)nnc12  5.22 to 6.00
4    Cc1noc(C)c1-c1ccccc1Oc1ccc2nnc(Cl)n2n1        < 5.22
5  Fc1ccc(Oc2ccc3nnc(C(F)(F)F)n3n2)c(-c2ccccc2)c1  5.22 to 6.00
6  CCc1nnc2c(C)cc(Oc3cc(C(F)(F)F)ccc3-c3cncnc3)nn12  5.22 to 6.00
7  FC(F)(F)c1ccc(-c2ccccc2)c(Oc2nn3c(Cl)nnc3cc2-c2ccccc2)c1  6.00 to 7.00
8  CCCOc1ccc(-c2ccc(C(F)(F)F)cc2Oc2ccc3nnc(Cl)n3n2)cn1 [Cpd.4-92, hydrochloride]        < 5.22
